# Test target: Melanocortin receptor 5 (Mus musculus, UniProt P41149)
# Sequence (P41149 whole entry): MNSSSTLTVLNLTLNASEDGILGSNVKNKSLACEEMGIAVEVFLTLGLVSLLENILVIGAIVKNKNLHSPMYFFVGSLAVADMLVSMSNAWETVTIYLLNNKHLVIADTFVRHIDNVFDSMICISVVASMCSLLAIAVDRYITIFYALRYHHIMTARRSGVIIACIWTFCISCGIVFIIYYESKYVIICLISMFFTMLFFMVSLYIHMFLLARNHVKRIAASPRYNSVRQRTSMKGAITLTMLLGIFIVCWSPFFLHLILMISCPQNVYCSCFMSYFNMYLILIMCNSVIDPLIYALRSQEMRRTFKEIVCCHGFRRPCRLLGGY
# Procedure details: Agonist activity at mouse MC5 receptor expressed in HEK293 cells after 6 hrs by cAMP-based beta-galactosidase reporter gene assay
# Format: functional, cell-based
# Experimental setup: hek293
Property measured: EC50 (nM)
Note: unit nM is implicit; provide only the numeric part.

Provide the reported EC50 (system: Melanocortin receptor 5 (Mus musculus, UniProt P41149)) for C[C@@H]1NC(=O)[C@H](CC(N)=O)NC(=O)[C@H](Cc2c[nH]c3ccccc23)N2C[C@H](CCCNC(=N)N)NC(=O)[C@H](CSCC2=O)NC(=O)[C@@H](Cc2ccc(I)cc2)NC(=O)[C@H](Cc2c[nH]cn2)NC(=O)[C@@H](NC(=O)[C@@H](N)Cc2ccc(O)cc2)CSSC[C@@H](C(=O)N[C@@H](Cc2ccc(O)cc2)C(N)=O)NC(=O)[C@H](Cc2ccccc2)NC1=O 9.8

====

# Test target: Melanocyte-stimulating hormone receptor (Mus musculus)
# Sequence (Q01727 whole entry): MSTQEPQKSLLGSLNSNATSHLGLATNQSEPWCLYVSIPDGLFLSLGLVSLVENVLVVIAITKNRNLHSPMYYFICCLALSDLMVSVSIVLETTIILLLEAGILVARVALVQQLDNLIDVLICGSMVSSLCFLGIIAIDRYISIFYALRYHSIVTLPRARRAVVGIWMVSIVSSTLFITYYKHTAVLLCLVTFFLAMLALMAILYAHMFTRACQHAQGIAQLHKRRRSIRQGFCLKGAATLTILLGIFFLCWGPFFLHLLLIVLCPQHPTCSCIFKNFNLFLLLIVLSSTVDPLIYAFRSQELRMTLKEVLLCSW
# Procedure details: Agonist activity at mouse MC1 receptor expressed in HEK293 cells after 6 hrs by cAMP-based beta-galactosidase reporter gene assay
# Format: functional, cell-based
# Experimental setup: hek293
Property measured: pEC50
# reply with the number alone; pEC50 is -log10 of concentration in mol/L

Report pEC50, nothing else, for this compound: C[C@@H]1NC(=O)[C@H](CC(N)=O)NC(=O)[C@H](Cc2c[nH]c3ccccc23)N2C[C@H](CCCNC(=N)N)NC(=O)[C@H](CSCC2=O)NC(=O)[C@@H](Cc2ccc3ccccc3c2)NC(=O)[C@H](Cc2c[nH]cn2)NC(=O)[C@@H](NC(=O)[C@@H](N)Cc2ccc(O)cc2)CSSC[C@@H](C(=O)N[C@@H](Cc2ccc(O)cc2)C(N)=O)NC(=O)[C@H](Cc2ccccc2)NC1=O 8.06

Return pEC50 for the following compound: C[C@@H]1NC(=O)[C@H](CC(N)=O)NC(=O)[C@H](Cc2c[nH]c3ccccc23)N2C[C@H](CCCNC(=N)N)NC(=O)[C@H](CSCC2=O)NC(=O)[C@@H]2CCCN2C(=O)[C@H](Cc2c[nH]cn2)NC(=O)[C@@H](NC(=O)[C@@H](N)Cc2ccc(O)cc2)CSSC[C@@H](C(=O)N[C@@H](Cc2ccc(O)cc2)C(N)=O)NC(=O)[C@H](Cc2ccccc2)NC1=O 5.30

Report measured pEC50; entry is C[C@@H]1NC(=O)[C@H](CC(N)=O)NC(=O)[C@H](Cc2ccc3ccccc3c2)N2C[C@H](CCCNC(=N)N)NC(=O)[C@H](CSCC2=O)NC(=O)[C@@H](Cc2ccccc2)NC(=O)[C@H](Cc2c[nH]cn2)NC(=O)[C@@H](NC(=O)[C@@H](N)Cc2ccc(O)cc2)CSSC[C@@H](C(=O)N[C@@H](Cc2ccc(O)cc2)C(N)=O)NC(=O)[C@H](Cc2ccccc2)NC1=O 8.21

Please report pEC50 for the following compound: C[C@@H]1NC(=O)[C@H](CC(N)=O)NC(=O)[C@H](Cc2ccc(-c3ccccc3)cc2)N2C[C@H](CCCNC(=N)N)NC(=O)[C@H](CSCC2=O)NC(=O)[C@@H](Cc2ccccc2)NC(=O)[C@H](Cc2c[nH]cn2)NC(=O)[C@@H](NC(=O)[C@@H](N)Cc2ccc(O)cc2)CSSC[C@@H](C(=O)N[C@@H](Cc2ccc(O)cc2)C(N)=O)NC(=O)[C@H](Cc2ccccc2)NC1=O 7.70

For the compound C[C@@H]1NC(=O)[C@H](CC(N)=O)NC(=O)[C@H](Cc2c[nH]c3ccccc23)N2C[C@H](CCCNC(=N)N)NC(=O)[C@H](CSCC2=O)NC(=O)[C@@H](Cc2ccccc2)NC(=O)[C@H](Cc2ccccc2)NC(=O)[C@@H](NC(=O)[C@@H](N)Cc2ccc(O)cc2)CSSC[C@@H](C(=O)N[C@@H](Cc2ccc(O)cc2)C(N)=O)NC(=O)[C@H](Cc2ccccc2)NC1=O , give its measured pEC50 value. 8.71

Using the record for C[C@@H]1NC(=O)[C@H](CC(N)=O)NC(=O)[C@H](Cc2c[nH]c3ccccc23)N2C[C@H](CCCCNC(=N)N)NC(=O)[C@H](CSCC2=O)NC(=O)[C@@H](Cc2ccccc2)NC(=O)[C@H](Cc2c[nH]cn2)NC(=O)[C@@H](NC(=O)[C@@H](N)Cc2ccc(O)cc2)CSSC[C@@H](C(=O)N[C@@H](Cc2ccc(O)cc2)C(N)=O)NC(=O)[C@H](Cc2ccccc2)NC1=O , state its measured pEC50. 7.82
